# Assay Overview: Ex vivo biodistribution in PC-3 tumor-bearing mice
# Assay Conditions: male, NRG, mouse, spleen, iv, total radioactivity, Biodistribution Spleen Mean, 1 h post-injection, mice bearing PC-3 tumor xenografts, n = 4
Numbered stars: 1 amine (or outer) side, 2 acyl side, 3 side chain; on linkers, the order of the positions; unused ones are H or OH. Square brackets hold non-standard residues; d marks the D form. Peptide text beside a SMILES is read from it. * marks the point of attachment. DOTA = O=C(O)CN1CCN(CC(=O)O)CCN(CC(=O)*)CCN(CC(=O)O)CC1; Leuψ(CH2N)ThzNH2 = CC(C)C[C@@H](CN1CSC[C@H]1C(N)=O)N*; X1 = O=C(CN1CCC(N[*:1])CC1)[*:2]
Please enter true (1) where tissue uptake at 1 h is greater than or equal to 0.5 %ID/g, and false (0) where it is lower.

# Compound, Category Label
data = [
    ("CC(C)C[C@@H](CN1CSC[C@H]1C(N)=O)NC(=O)[C@H](Cc1cnc[nH]1)NC(=O)CN(C)C(=O)[C@@H](NC(=O)[C@H](C)NC(=O)[C@H](Cc1c[nH]c2ccccc12)NC(=O)[C@H](CCC(N)=O)NC(=O)[C@@H](Cc1ccccc1)NC(=O)CN1CCC(NC(=O)CN2CCN(CC(=O)O)CCN(CC(=O)O)CCN(CC(=O)O)CC2)CC1)C(C)C [^68Ga-LW01090, metal not drawn]", "false (0)"),
    ("CC(C)C[C@@H](CN1CSC[C@H]1C(N)=O)NC(=O)[C@H](Cc1c[nH]cn1)NC(=O)CNC(=O)[C@@H](NC(=O)[C@H](C)NC(=O)[C@H](Cc1c[nH]c2ccccc12)NC(=O)[C@H](CCC(N)=O)NC(=O)[C@@H](Cc1ccccc1)NC(=O)CN1CCC(NC(=O)CN2CCN(CC(=O)O)CCN(CC(=O)O)CCN(CC(=O)O)CC2)CC1)C(C)C [^68Ga-LW01045, metal not drawn]", "false (0)"),
    ("CC(C)C[C@@H](CN1CSC[C@H]1C(N)=O)NC(=O)[C@H](Cc1c[nH]cn1)NC(=O)CNC(=O)[C@@H](NC(=O)[C@H](C)NC(=O)[C@H](Cc1c[nH]c2ccccc12)NC(=O)[C@H](CCC(N)=O)NC(=O)[C@@H](Cc1ccc2ccccc2c1)NC(=O)CN1CCC(NC(=O)CN2CCN(CC(=O)O)CCN(CC(=O)O)CCN(CC(=O)O)CC2)CC1)C(C)C [^68Ga-LW01059, metal not drawn]", "true (1)"),
    ("CC(C)C[C@@H](CN1CSC[C@H]1C(N)=O)NC(=O)[C@H](Cc1c[nH]cn1)NC(=O)CNC(=O)[C@@H](NC(=O)[C@H](C)NC(=O)[C@H](Cc1c[nH]c2ccccc12)NC(=O)[C@H](Cc1c[nH]cn1)NC(=O)[C@@H](Cc1ccccc1)NC(=O)CN1CCC(NC(=O)CN2CCN(CC(=O)O)CCN(CC(=O)O)CCN(CC(=O)O)CC2)CC1)C(C)C [^68Ga-LW01102, metal not drawn] ({DOTA}-[X1][dF]HWAVGH-{Leuψ(CH2N)ThzNH2})", "true (1)"),
    ("CC(C)C[C@@H](CN1CCC[C@H]1C(N)=O)NC(=O)[C@H](Cc1c[nH]cn1)NC(=O)CN(C)C(=O)[C@@H](NC(=O)[C@H](C)NC(=O)[C@H](Cc1c[nH]c2ccccc12)NC(=O)[C@H](CCC(N)=O)NC(=O)[C@@H](Cc1ccccc1)NC(=O)CN1CCC(NC(=O)CN2CCN(CC(=O)O)CCN(CC(=O)O)CCN(CC(=O)O)CC2)CC1)C(C)C [^68Ga-LW02045, metal not drawn]", "false (0)"),
]
